Tested on: Enterobacter cloacae
experimental details: Minimum inhibitory concentration against Enterobacter cloacae 1321E was determined by agar dilution method using Mueller-Hinton
Format: functional
Catalogue of MIC values

- structure smiles string: "COC(=O)c1cc(/C=C\\[C@@H]2C[C@H](SC3=C(C(=O)O)N4C(=O)[C@H]([C@@H](C)O)[C@H]4[C@H]3C)CN2)on1"
  readout unit: "µg/mL"
  MIC: 0.025
- structure smiles string: "C[C@@H](O)[C@H]1C(=O)N2C(C(=O)O)=C(S[C@@H]3CN[C@H](/C=C/c4ccno4)C3)[C@H](C)[C@H]12"
  readout unit: "µg/mL"
  MIC: 0.025
- structure smiles string: "C[C@@H](O)[C@H]1C(=O)N2C(C(=O)O)=C(S[C@@H]3CN[C@H](/C=C\\c4cnoc4)C3)[C@H](C)[C@H]12"
  readout unit: "µg/mL"
  MIC: 1.56
- structure smiles string: "COc1cc(/C=C/[C@@H]2C[C@H](SC3=C(C(=O)O)N4C(=O)[C@H]([C@@H](C)O)[C@H]4[C@H]3C)CN2)on1"
  readout unit: "µg/mL"
  MIC: 0.195
- structure smiles string: "C[C@@H](O)[C@H]1C(=O)N2C(C(=O)O)=C(S[C@@H]3CN[C@H](/C=C\\c4cc(CO)no4)C3)[C@H](C)[C@H]12"
  readout unit: "µg/mL"
  MIC: 0.049

* * *

Catalogue of MIC values
System: Staphylococcus aureus
experimental details: Minimum inhibitory concentration against Staphylococcus aureus SG 511 was determined by agar dilution method using Mueller-Hinton
Type: functional

- molecule: "COc1cc(/C=C/[C@@H]2C[C@H](SC3=C(C(=O)O)N4C(=O)[C@H]([C@@H](C)O)[C@H]4[C@H]3C)CN2)on1"
  readout unit: "µg/mL"
  MIC: 0.049
- molecule: "COC(=O)c1cc(/C=C/[C@@H]2C[C@H](SC3=C(C(=O)O)N4C(=O)[C@H]([C@@H](C)O)[C@H]4[C@H]3C)CN2)on1"
  readout unit: "µg/mL"
  MIC: 0.049
- molecule: "C[C@@H](O)[C@H]1C(=O)N2C(C(=O)O)=C(SCCNC=N)C[C@H]12 [IMIPENEM ANHYDROUS]"
  readout unit: "µg/mL"
  MIC: 0.025
- molecule: "C[C@@H](O)[C@H]1C(=O)N2C(C(=O)O)=C(S[C@@H]3CN[C@H](/C=C/c4ccon4)C3)[C@H](C)[C@H]12"
  readout unit: "µg/mL"
  MIC: 0.195
- molecule: "C[C@@H](O)[C@H]1C(=O)N2C(C(=O)O)=C(S[C@@H]3CN[C@H](/C=C/c4cc(CO)no4)C3)[C@H](C)[C@H]12"
  readout unit: "µg/mL"
  MIC: 0.025

* * *

Tested on: Staphylococcus aureus
experimental details: Minimum inhibitory concentration against Staphylococcus aureus SG 511 was determined by agar dilution method using Mueller-Hinton
Type: functional

- structure smiles string: "C[C@@H](O)[C@H]1C(=O)N2C(C(=O)O)=C(S[C@@H]3CN[C@H](C(=O)N(C)C)C3)[C@H](C)[C@H]12"
  MIC: "0.195 µg/mL"
- structure smiles string: "C[C@@H](O)[C@H]1C(=O)N2C(C(=O)O)=C(S[C@@H]3CN[C@H](/C=C\\c4cc(CO)no4)C3)[C@H](C)[C@H]12"
  MIC: "0.049 µg/mL"
- structure smiles string: "C[C@@H](O)[C@H]1C(=O)N2C(C(=O)O)=C(S[C@@H]3CN[C@H](/C=C/c4cc(Cl)no4)C3)[C@H](C)[C@H]12"
  MIC: "0.013 µg/mL"
- structure smiles string: "C[C@@H](O)[C@H]1C(=O)N2C(C(=O)O)=C(S[C@@H]3CN[C@H](/C=C\\c4cnoc4)C3)[C@H](C)[C@H]12"
  MIC: "0.013 µg/mL"
- structure smiles string: "C[C@@H](O)[C@H]1C(=O)N2C(C(=O)O)=C(S[C@@H]3CN[C@H](/C=C/c4ccno4)C3)[C@H](C)[C@H]12"
  MIC: "0.025 µg/mL"
- structure smiles string: "COC(=O)c1cc(/C=C\\[C@@H]2C[C@H](SC3=C(C(=O)O)N4C(=O)[C@H]([C@@H](C)O)[C@H]4[C@H]3C)CN2)on1"
  MIC: "0.049 µg/mL"
